Target: plasmin (Homo sapiens)
Construct: uPA, Factor Xa, thrombin, plasmin and trypsin (Sigma, USA); purchased Sigma, USA
Sequence (P00747 581-810 limits assumed, species assumed): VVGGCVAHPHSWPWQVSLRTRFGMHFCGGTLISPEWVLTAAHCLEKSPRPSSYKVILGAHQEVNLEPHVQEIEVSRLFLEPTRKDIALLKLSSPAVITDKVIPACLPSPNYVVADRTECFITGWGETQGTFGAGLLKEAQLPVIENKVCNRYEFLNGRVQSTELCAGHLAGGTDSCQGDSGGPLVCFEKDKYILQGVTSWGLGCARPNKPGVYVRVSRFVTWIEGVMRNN
Sequence (P00747 97-580 partner limits assumed, species assumed): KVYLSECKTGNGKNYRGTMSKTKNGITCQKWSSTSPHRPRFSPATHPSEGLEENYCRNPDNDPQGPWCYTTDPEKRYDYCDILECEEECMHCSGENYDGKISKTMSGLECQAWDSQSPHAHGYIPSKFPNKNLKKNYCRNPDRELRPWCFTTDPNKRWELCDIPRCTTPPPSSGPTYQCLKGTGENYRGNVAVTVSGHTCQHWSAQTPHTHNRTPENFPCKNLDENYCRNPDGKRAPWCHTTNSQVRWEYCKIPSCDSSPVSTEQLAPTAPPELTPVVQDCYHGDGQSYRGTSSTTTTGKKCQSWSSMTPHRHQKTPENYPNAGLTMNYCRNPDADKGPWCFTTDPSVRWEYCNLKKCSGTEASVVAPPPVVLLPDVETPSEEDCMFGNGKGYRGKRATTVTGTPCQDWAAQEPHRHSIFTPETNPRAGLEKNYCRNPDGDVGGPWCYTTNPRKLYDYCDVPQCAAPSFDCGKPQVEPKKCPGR
Test: Plasmin enzymatic assay (selectivity screening)
Type: biochemical
Assign inhibition at 5 µM to each entry below.
Write the value in % as a bare number.

Given the compound N=C(N)c1ccc(COc2cc(Oc3ccc(C(=N)N)cc3)cc(C(=O)N3CCC(CCN)CC3)c2)cc1 , write its reported inhibition at 5 µM.
42

Given the compound N=C(N)c1ccc(Oc2cc(OCc3ccc(Br)cc3)cc(C(=O)NC3CCC(N)CC3)c2)cc1 (stereo not shown) , write its reported inhibition at 5 µM.
25

Given the compound N=C(N)c1ccc(Oc2cc(Oc3ccc(C(=N)N)cc3)cc(C(=O)OC3CCC(N)CC3)c2)cc1 (stereo not shown) , write its reported inhibition at 5 µM.
58

Given the compound N=C(N)c1ccc(Oc2cc(OCc3cccc(CN)c3)cc(C(=O)NC3CCC(N)CC3)c2)cc1 (stereo not shown) , write its reported inhibition at 5 µM.
18

Given the compound N=C(N)c1ccc(Oc2cc(OCc3cccc(C(=N)N)c3)cc(C(=O)N3CCC(CCN)CC3)c2)cc1 , write its reported inhibition at 5 µM.
50

Given the compound N=C(N)c1ccc(Oc2cc(Oc3ccc(C(=N)N)cc3)cc(C(=O)N3CCN(CCN)CC3)c2)cc1 , write its reported inhibition at 5 µM.
40

Given the compound N=C(N)CCCCCOc1cc(Oc2ccc(C(=N)N)cc2)cc(C(=O)NC2CCC(N)CC2)c1 (stereo not shown) , write its reported inhibition at 5 µM.
5

====

Target: Factor Xa (Homo sapiens, UniProt P00742)
Construct: uPA, Factor Xa, thrombin, plasmin and trypsin (Sigma, USA); purchased Sigma, USA
Sequence (P00742 235-488 limits assumed): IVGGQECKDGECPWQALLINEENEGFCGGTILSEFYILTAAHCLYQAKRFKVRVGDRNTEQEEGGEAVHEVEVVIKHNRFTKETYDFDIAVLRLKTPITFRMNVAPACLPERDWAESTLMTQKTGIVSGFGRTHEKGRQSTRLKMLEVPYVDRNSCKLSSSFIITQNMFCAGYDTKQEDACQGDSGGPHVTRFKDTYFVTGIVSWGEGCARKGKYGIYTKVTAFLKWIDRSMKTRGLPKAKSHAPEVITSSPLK
Sequence (P00742 41-179 partner limits assumed): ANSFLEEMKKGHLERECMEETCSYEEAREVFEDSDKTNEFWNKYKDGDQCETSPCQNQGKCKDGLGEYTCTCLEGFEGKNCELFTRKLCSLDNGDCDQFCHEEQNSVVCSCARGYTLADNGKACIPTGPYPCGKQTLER
Experiment: Factor Xa enzymatic assay (selectivity screening)
Type: biochemical
Source text: Purified recombinant matriptase was used in a fluorescence-based screening assay using Gln-Ala-Arg peptide as a substrate. In this assay the cleavage of AMC from Boc-Gln-Ala-Arg-7-amido-4 methylcoumarin hydrochloride (Boc-Gln-Ala-Arg-AMC) (Sigma, USA) was monitored by measuring the increase in fluorescence intensity of AMC released upon proteolytic cleavage at 480 nm (kex=360 nm). […]
metric: inhibition at 5 µM (%)
Write the value in % as a bare number.

Given the compound N=C(N)c1ccc(Oc2cc(Oc3ccc(CN)cc3)cc(C(=O)NC3CCC(N)CC3)c2)cc1 (centres unmarked) , write its reported inhibition at 5 µM.
5

Given the compound N=C(N)CCCCCOc1cc(Oc2ccc(C(=N)N)cc2)cc(C(=O)NC2CCC(N)CC2)c1 (centres unmarked) , write its reported inhibition at 5 µM.
43

Given the compound N=C(N)c1ccc(Oc2cc(Oc3ccc(C(=N)N)cc3)cc(C(=O)N3CCN(CCN)CC3)c2)cc1 , write its reported inhibition at 5 µM.
94

Given the compound N=C(N)c1ccc(COc2cc(Oc3ccc(C(=N)N)cc3)cc(C(=O)NC3CCC(N)CC3)c2)cc1 (centres unmarked) , write its reported inhibition at 5 µM.
76

Given the compound [H]/N=C(\N)c1ccc(Oc2cc(Oc3ccc(/C(N)=N/[H])cc3)cc(C(=O)NC3CCC(N)CC3)c2)cc1 (centres unmarked) , write its reported inhibition at 5 µM.
83

Given the compound N=C(N)c1ccc(Oc2cc(OCc3ccc(CN)cc3)cc(C(=O)NC3CCC(N)CC3)c2)cc1 (centres unmarked) , write its reported inhibition at 5 µM.
47

Given the compound N=C(N)c1ccc(Oc2cc(OCc3ccc(Br)cc3)cc(C(=O)NC3CCC(N)CC3)c2)cc1 (centres unmarked) , write its reported inhibition at 5 µM.
52

Given the compound N=C(N)c1ccc(Oc2cc(OCc3cccc(CN)c3)cc(C(=O)NC3CCC(N)CC3)c2)cc1 (centres unmarked) , write its reported inhibition at 5 µM.
71

Given the compound N=C(N)c1ccc(Oc2cc(Oc3ccc(C(=N)N)cc3Cl)cc(C(=O)NC3CCC(N)CC3)c2)cc1 (centres unmarked) , write its reported inhibition at 5 µM.
81

Given the compound N=C(N)c1cccc(COc2cc(OCc3cccc(C(=N)N)c3)cc(C(=O)NC3CCC(N)CC3)c2)c1 (centres unmarked) , write its reported inhibition at 5 µM.
96

Given the compound N=C(N)c1ccc(COc2cc(Oc3ccc(C(=N)N)cc3)cc(C(=O)N3CCC(CCN)CC3)c2)cc1 , write its reported inhibition at 5 µM.
73

Given the compound N=C(N)c1ccc(Oc2cc(C(=O)NC3CCC(N)CC3)cc(Oc3ccc(C(=N)N)cc3)n2)cc1 (centres unmarked) , write its reported inhibition at 5 µM.
84

Given the compound N=C(N)CCCCOc1cc(Oc2ccc(C(=N)N)cc2)cc(C(=O)NC2CCC(N)CC2)c1 (centres unmarked) , write its reported inhibition at 5 µM.
63

Given the compound N=C(N)c1ccc(Oc2cc(OCc3cccc(C(=N)N)c3)cc(C(=O)N3CCC(CCN)CC3)c2)cc1 , write its reported inhibition at 5 µM.
94

Given the compound N=C(N)c1ccc(Oc2cc(OCc3cccc(C(=N)N)c3)cc(C(=O)NC3CCC(N)CC3)c2)cc1 (centres unmarked) , write its reported inhibition at 5 µM.
93

Given the compound N=C(N)c1ccc(Oc2cc(Oc3ccc(C(=N)N)cc3)cc(C(=O)OC3CCC(N)CC3)c2)cc1 (centres unmarked) , write its reported inhibition at 5 µM.
92

Given the compound Cc1cc(Oc2cc(Oc3ccc(C(=N)N)cc3)cc(C(=O)NC3CCC(N)CC3)c2)ccc1C(=N)N (centres unmarked) , write its reported inhibition at 5 µM.
86

Origin of measurements: patent US8722930B2
